# tgt: Histone-lysine N-methyltransferase EHMT2 (Homo sapiens)
# Sequence (Q96KQ7 whole entry, the tested form may be a part): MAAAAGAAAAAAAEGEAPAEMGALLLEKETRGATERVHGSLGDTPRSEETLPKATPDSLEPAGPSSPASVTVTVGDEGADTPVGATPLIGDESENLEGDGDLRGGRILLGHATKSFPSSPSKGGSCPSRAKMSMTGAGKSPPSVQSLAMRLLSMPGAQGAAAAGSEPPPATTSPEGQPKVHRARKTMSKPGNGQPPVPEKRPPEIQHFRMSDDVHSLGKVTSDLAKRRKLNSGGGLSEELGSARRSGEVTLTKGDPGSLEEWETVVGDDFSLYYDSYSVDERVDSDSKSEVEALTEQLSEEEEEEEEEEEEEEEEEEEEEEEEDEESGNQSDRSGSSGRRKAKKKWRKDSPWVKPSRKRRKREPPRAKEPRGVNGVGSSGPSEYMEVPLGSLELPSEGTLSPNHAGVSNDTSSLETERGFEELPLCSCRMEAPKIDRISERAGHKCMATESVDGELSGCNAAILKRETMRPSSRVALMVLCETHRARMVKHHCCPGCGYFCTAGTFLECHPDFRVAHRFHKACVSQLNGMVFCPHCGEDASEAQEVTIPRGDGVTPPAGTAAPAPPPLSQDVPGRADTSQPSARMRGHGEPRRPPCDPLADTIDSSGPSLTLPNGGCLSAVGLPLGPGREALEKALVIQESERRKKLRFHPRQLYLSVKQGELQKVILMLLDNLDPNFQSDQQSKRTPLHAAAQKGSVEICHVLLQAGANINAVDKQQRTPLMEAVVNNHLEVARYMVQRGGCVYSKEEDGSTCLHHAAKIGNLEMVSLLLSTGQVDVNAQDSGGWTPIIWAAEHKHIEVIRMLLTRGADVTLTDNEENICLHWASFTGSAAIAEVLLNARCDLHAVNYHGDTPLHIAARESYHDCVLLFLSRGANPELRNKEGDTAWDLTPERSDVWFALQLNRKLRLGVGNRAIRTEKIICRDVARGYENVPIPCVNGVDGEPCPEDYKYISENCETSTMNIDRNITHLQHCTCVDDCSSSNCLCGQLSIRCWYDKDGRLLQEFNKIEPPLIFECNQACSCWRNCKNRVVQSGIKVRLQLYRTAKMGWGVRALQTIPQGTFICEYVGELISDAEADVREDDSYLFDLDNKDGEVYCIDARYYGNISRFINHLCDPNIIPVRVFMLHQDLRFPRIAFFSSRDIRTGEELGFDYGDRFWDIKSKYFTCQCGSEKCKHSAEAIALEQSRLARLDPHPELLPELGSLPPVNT
# protocol_description: Inhibition of N-terminal GST-tagged human recombinant G9a (785 to 1210 residues) expressed in baculovirus infected Sf9 cells incubated for 1 hr by AlphaLISA analysis
Ranges used to classify IC50: low = under 0.6 µM, middle = from 0.6 µM up to 2 µM, high = 2 µM and over

As a guide, the following entries are already answered.
>  <compound>
CCCCC(NC(=O)c1[nH]c2c(c1C)C(=O)CC(C)(C)C2)C(=O)Nc1cccc(Cl)c1 (racemic)

>  <cat>
middle

$$$$
>  <compound>
CCCCC(NC(=O)c1[nH]c2c(c1C)C(=O)CC(C)(C)C2)C(=O)Nc1cccnc1 (racemic)

>  <cat>
middle

$$$$
>  <compound>
Cc1c(C(=O)NC(CCC2CCC2)C(=O)Nc2ccccc2)[nH]c2c1C(=O)CC(C)(C)C2 (racemic)

>  <cat>
middle

$$$$
>  <compound>
Cc1c(C(=O)NC(COC2CC2)C(=O)Nc2ccccc2)[nH]c2c1C(=O)CC(C)(C)C2 (racemic)

>  <cat>
middle

$$$$
>  <compound>
CCCC[C@H](NC(=O)c1[nH]c2c(c1C)C(=O)CC1(CCCCC1)C2)C(=O)Nc1ccccc1

>  <cat>
middle

$$$$
>  <compound>
CCCCCC(NC(=O)c1[nH]c2c(c1C)C(=O)CC(C)(C)C2)C(=O)Nc1ccccc1 (racemic)

>  <cat>
high

$$$$

Inquiry: Input CCCC[C@@H](NC(=O)c1[nH]c2c(c1C)C(=O)CC(C)(C)C2)C(=O)Nc1ccccc1 ; output its category
Reply text: high

Inquiry: Input Cc1c(C(=O)NC(CCC(C)C)C(=O)Nc2ccccc2)[nH]c2c1C(=O)CC(C)(C)C2 (racemic) ; output its category
Reply text: low

Inquiry: Input CCCC(NC(=O)c1[nH]c2c(c1C)C(=O)CC(C)(C)C2)C(=O)Nc1ccccc1 (racemic) ; output its category
Reply text: high

Inquiry: Input CCCCC(NC(=O)c1[nH]c2c(c1C)C(=O)CC(C)(C)C2)C(=O)Nc1ccncc1 (racemic) ; output its category
Reply text: middle

Inquiry: Input CCCCC(NC(=O)c1[nH]c2c(c1C)C(=O)CC(C)(C)C2)C(=O)Nc1ccc(Cl)cc1 (racemic) ; output its category
Reply text: middle

* * *

# tgt: Histone-lysine N-methyltransferase EHMT2 (Homo sapiens)
# protocol_description: Inhibition of N-terminal GST-tagged human recombinant G9a (785 to 1210 residues) expressed in baculovirus infected Sf9 cells incubated for 1 hr by AlphaLISA analysis
recorded_endpoint: IC50

Examples from the recorded data:
>  <compound>
CCCCC(NC(=O)c1[nH]c2c(c1C)C(=O)CC(C)(C)C2)C(=O)N(C)c1ccccc1 (racemic)

>  <IC50>
> 50 µM

$$$$
>  <compound>
CCCCC(NC(=O)c1c(C)c2c(n1C)CC(C)(C)CC2=O)C(=O)Nc1ccccc1 (racemic)

>  <IC50>
> 50 µM

$$$$
>  <compound>
Cc1c(C(=O)NC(CCc2ccccc2)C(=O)Nc2ccccc2)[nH]c2c1C(=O)CC(C)(C)C2 (racemic)

>  <IC50>
> 5 µM

$$$$

Proceed to the following item.
Inquiry: Fill in reported IC50 for this entry: CCCCC(NC(=O)c1oc2c(c1C)C(=O)CC(C)(C)C2)C(=O)Nc1ccccc1 (racemic)
Reply text: > 50 µM

Attribution: ChEMBL document CHEMBL5247652
